target: H^+/K^+-ATPase (Sus scrofa); construct: used as an enzyme source of the in vitro enzyme reaction assay of proton pump; assay: Inhibitory effects on proton pump (H^+/K^+-ATPase) activity, hog gastric vesicles; settings: K^+ stimulated H^+/K^+-ATPase activity, hog gastric vesicle, Pi measured at 620 nm
pIC50: −log10 of the molar value. Structures can show the parent of a compound that is named as a salt.
observation-type: pIC50

Here's what some known entries look like.
compound: Cc1c(C)n(Cc2ccccc2)c2c(OCc3ccc(Cl)cc3)ccnc12.Cl [Example 73, hydrochloride]
experimental-system: H^+/K^+-ATPase (Sus scrofa)
pIC50: 7.40
//
compound: COC(=O)CCn1c(C)c(C)c2nccc(OCc3ccc(F)cc3)c21 [Example 57, hydrochloride]
experimental-system: H^+/K^+-ATPase (Sus scrofa)
pIC50: 6.57
//
compound: CCCn1c(C)c(C)c2nccc(OCc3ccc(Br)cc3)c21 [Example 229, hydrochloride]
experimental-system: H^+/K^+-ATPase (Sus scrofa)
pIC50: 7.15
//
compound: Cc1c(C)n(CC2OCCO2)c2c(N3CCc4ccccc4C3)ccnc12 [Example 3, hydrochloride]
experimental-system: H^+/K^+-ATPase (Sus scrofa)
pIC50: 6.19
//
compound: Cc1c(C)n(Cc2cccc(F)c2)c2c(OCc3ccc(Br)cc3)ccnc12 [Example 222, hydrochloride]
experimental-system: H^+/K^+-ATPase (Sus scrofa)
pIC50: 7.22
//
compound: COc1cccc(Cn2c(C)c(C)c3nccc(OCc4ccc5c(c4)OCO5)c32)c1 [Example 119, hydrochloride]
experimental-system: H^+/K^+-ATPase (Sus scrofa)
pIC50: 6.64
//
compound: Cc1cccc(Cn2c(C)c(C)c3nccc(OCc4ccc(Cl)cc4)c32)c1 [Example 95, hydrochloride]
experimental-system: H^+/K^+-ATPase (Sus scrofa)
pIC50: 6.28
//
compound: COCCn1c(C)c(C)c2nccc(OCc3ccc(F)cc3)c21 [Example 129, phosphate]
experimental-system: H^+/K^+-ATPase (Sus scrofa)
pIC50: 7.40
//
compound: COCCn1c(C)c(C)c2nccc(OCc3ccc(F)cc3)c21 [Example 123, methanesulfonate]
experimental-system: H^+/K^+-ATPase (Sus scrofa)
pIC50: 7.22
//
compound: COCCn1c(C)c(C)c2nccc(OCc3ccc(F)cc3)c21 [Example 128, maleate]
experimental-system: H^+/K^+-ATPase (Sus scrofa)
pIC50: 7.30

[P] Cc1c(C)n(Cc2ccccc2)c2c(OCc3ccc(Br)cc3)ccnc12 [Example 219, hydrochloride]
[Q] Cc1c(C)n(CC2OCCO2)c2c(OCc3ccc4c(c3)OCO4)ccnc12 [Example 100, hydrochloride]
[R] Cc1c(C)n(Cc2ccccc2F)c2c(OCc3ccc(Cl)cc3)ccnc12 [Example 89, hydrochloride]
[S] Cc1c(C)n(Cc2ccccc2F)c2c(OCc3ccc(Br)cc3)ccnc12 [Example 225, hydrochloride]
[T] Cc1cccc(Cn2c(C)c(C)c3nccc(N4CCc5ccccc5C4)c32)c1 [Example 12, hydrochloride]
Request: Ordering: ascending pIC50. Output spec: a listing of the labels in the requested order.
Response: Q, T, S, R, P
(Q: 5.55, T: 6.01, S: 6.21, R: 6.47, P: 7.22)

* * *

target: H^+/K^+-ATPase (Sus scrofa, UniProt P19156); construct: used as an enzyme source of the in vitro enzyme reaction assay of proton pump; from tissue; host or cells: hog gastric fundic mucosa (membrane vesicles, lyophilized); assay: Inhibitory effects on proton pump (H^+/K^+-ATPase) activity, hog gastric vesicles; type: biochemical; conditions: K^+ stimulated H^+/K^+-ATPase activity, hog gastric vesicle, Pi measured at 620 nm
Sequence (P19156 2-1034 limits assumed): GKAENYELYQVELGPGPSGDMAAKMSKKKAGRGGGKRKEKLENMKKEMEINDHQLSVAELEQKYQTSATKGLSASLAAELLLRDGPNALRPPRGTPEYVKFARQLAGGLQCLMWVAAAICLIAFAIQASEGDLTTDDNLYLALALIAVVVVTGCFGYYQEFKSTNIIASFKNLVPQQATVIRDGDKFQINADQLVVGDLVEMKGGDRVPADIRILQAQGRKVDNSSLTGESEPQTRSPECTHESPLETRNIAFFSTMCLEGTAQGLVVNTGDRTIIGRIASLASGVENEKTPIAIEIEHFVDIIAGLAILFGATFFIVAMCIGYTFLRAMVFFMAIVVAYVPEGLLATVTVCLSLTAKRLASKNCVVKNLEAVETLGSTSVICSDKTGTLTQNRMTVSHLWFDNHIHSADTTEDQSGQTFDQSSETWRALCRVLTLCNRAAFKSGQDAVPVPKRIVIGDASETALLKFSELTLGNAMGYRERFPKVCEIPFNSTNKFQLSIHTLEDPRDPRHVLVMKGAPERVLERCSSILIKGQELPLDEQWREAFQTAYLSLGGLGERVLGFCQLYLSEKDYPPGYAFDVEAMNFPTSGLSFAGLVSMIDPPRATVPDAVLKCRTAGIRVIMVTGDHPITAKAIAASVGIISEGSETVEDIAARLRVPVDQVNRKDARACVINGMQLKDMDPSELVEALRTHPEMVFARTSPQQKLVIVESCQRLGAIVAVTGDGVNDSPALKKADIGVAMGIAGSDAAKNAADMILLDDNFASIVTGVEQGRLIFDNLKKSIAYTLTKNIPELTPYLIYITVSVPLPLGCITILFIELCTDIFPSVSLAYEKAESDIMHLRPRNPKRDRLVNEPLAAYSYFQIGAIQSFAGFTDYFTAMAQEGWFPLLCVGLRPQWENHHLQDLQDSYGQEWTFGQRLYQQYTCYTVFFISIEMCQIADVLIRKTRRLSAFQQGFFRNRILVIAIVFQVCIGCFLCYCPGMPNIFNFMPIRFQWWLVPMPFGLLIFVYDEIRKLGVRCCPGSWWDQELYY
Sequence (P18434 whole entry partner): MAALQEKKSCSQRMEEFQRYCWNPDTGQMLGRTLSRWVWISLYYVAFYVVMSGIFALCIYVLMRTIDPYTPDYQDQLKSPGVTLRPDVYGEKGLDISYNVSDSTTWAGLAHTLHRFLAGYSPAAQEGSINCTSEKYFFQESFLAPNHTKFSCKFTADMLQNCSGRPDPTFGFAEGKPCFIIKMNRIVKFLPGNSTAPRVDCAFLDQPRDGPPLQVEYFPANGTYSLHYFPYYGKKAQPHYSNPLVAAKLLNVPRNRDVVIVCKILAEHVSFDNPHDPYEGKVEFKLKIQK
Structures can show the parent of a compound that is named as a salt.
observation-type: IC50 (nM)

Here's what some known entries look like.
molecule: C=CCn1c(C)c(C)c2nccc(OCc3ccc(Cl)cc3)c21.Cl [Example 72, hydrochloride]
scale-unit: nM
IC50: 30
--
molecule: Cc1c(C)n(Cc2ccc(Cl)cc2)c2c(N3CCc4ccccc4C3)ccnc12 [Example 1, hydrochloride]
scale-unit: nM
IC50: 650

[A] Cc1ccc(Cn2c(C)c(C)c3nccc(OCc4ccc(C(F)(F)F)cc4)c32)cc1 [Example 200, hydrochloride]
[B] Cc1c(C)n(CC2CNC(=O)O2)c2c(OCc3ccc(Cl)cc3)ccnc12 (stereo not shown) [Example 81, hydrochloride]
Request: Returns the identifier with the smallest measured IC50 among A and B . Pick one and reply with its label.
Response: A
